read-out: E-selectin (Homo sapiens) (UniProt P16581); experiment: BSK_LPS_Eselectin: BioMAP Diversity Plus: LPS Assay for Eselectin Biomarker Activity (AID 2283077); details: primary human HUVEC with PBMC; actives raise or lower the signal
Sequence (P16581 whole entry, looked up): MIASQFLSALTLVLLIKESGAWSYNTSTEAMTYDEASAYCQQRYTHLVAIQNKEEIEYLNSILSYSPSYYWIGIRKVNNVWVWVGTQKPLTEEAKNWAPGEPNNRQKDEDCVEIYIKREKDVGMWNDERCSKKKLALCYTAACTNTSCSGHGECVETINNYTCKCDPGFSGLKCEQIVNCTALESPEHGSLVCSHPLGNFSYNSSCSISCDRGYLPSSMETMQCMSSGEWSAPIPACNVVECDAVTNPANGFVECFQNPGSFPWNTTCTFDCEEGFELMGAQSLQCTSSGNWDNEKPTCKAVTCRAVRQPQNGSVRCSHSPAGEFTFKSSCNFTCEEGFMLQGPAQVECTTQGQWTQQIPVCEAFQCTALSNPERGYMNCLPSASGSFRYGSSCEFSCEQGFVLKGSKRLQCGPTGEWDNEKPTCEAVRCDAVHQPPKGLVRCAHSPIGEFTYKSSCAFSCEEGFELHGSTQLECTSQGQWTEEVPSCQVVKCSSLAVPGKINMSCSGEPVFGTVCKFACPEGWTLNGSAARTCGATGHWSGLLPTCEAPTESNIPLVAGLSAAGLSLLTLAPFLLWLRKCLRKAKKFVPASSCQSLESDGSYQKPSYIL
Calls of active or inactive are those of the source. How the source made its calls: active means hit-call score of the fitted dose curve at least 0.9, where 1 is the maximum; inactive means score below 0.9.
Your reply should match one of these outcome classes. TRUE (active), FALSE (inactive)

Worked examples follow.
CC(C)C1(C)N=C(c2nc3ccccc3cc2C(=O)O)NC1=O (stereo not drawn)
FALSE
COC(=O)C=C(C)OP(=O)(OC)OC
FALSE
CNC(=O)ON=CC(C)(C)SC
FALSE

Request: In this assay, the call recorded for COC(=O)C(C)Oc1ccc(Oc2ccc(Cl)cc2Cl)cc1 (stereo not drawn) was what?
Response: FALSE

Request: In this assay, the call recorded for CCOC(=O)CC(SP(=S)(OC)OC)C(=O)OCC (stereo not drawn) was what?
Response: FALSE

Request: In this assay, the call recorded for "COP(=S)(OC)Oc1nc(Cl)c(Cl)cc1Cl" was what?
Response: TRUE

Request: In this assay, the call recorded for "COc1nc(NC(C)C)nc(NC(C)C)n1" was what?
Response: FALSE

Request: In this assay, the call recorded for OC(c1ccc(Cl)cc1)(c1cncnc1)c1ccccc1Cl (stereo not drawn) was what?
Response: FALSE

Request: In this assay, the call recorded for C=CC1(C)OC(=O)N(c2cc(Cl)cc(Cl)c2)C1=O (stereo not drawn) was what?
Response: FALSE

Request: In this assay, the call recorded for "CC(C)Oc1cc(-n2nc(C(C)(C)C)oc2=O)c(Cl)cc1Cl" was what?
Response: TRUE

Request: In this assay, the call recorded for COP(N)(=O)SC (stereo not drawn) was what?
Response: FALSE

Request: In this assay, the call recorded for "CCOP(=S)(OCC)SCn1c(=O)oc2cc(Cl)ccc21" was what?
Response: TRUE

Request: In this assay, the call recorded for "CON(C)C(=O)Nc1ccc(Cl)c(Cl)c1" was what?
Response: FALSE
